Values from patent US20200123233A1

- targetUnderTest: F protein of RSV B-1 (human respiratory syncytial virus, …, UniProt P13843 26-574)
- testName: cell-based or functional assay
# RSV neutralization IC50 (nM) (n = 2), B1 per record follows

binder	RSV neutralization IC50 (nM) (n = 2), B1
LG191E4 (VHH) VHH: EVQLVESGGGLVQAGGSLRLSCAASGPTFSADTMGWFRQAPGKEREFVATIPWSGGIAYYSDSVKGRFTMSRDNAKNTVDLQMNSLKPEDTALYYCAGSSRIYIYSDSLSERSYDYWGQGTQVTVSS	4330 nM
RSVPMP15H8 (VHH) VHH: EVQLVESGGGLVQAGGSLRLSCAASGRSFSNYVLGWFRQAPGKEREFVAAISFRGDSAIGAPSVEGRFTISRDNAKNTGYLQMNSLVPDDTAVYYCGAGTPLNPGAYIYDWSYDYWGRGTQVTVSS	2340 nM
RSVPMP7B2 (VHH) VHH: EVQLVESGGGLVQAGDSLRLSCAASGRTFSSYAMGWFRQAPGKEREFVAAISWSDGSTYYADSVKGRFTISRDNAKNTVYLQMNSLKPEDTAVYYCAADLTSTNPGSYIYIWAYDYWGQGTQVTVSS	2690 nM
RSVPMP15B3 (VHH) VHH: EVQLVESGGGLVQPGGSLRLSCAASGLTLDYYALGWFRQAPGKEREGVSCISSSDHSTTYTDSVKGRFTISWDNAKNTLYLQMNSLKPGDTAVYYCAADPALGCYSGSYYPRYDYWGQGTQVTVSS	1270 nM
